Tested on: HL-60
assay-info: Antiproliferative activity against human HL60 assessed as reduction in cell growth at 100 uM by CellTiter-non radioactive cell proliferation assay
Format: functional
Some compounds, each annotated with its measured inhibition at 100 µM.
Field: numeric (%). Do not append units.

structure-notation: Cc1cc2cc(NS(=O)(=O)c3cc(C(=O)NO)ccc3Cl)ccc2n(C)c1=O
inhibition at 100 µM [%]: 33
--
structure-notation: Cc1cc2cc(NS(=O)(=O)Cc3cccc(C(=O)NO)c3)ccc2n(C)c1=O
inhibition at 100 µM [%]: 0
--
structure-notation: COc1ccc(C(=O)NO)cc1CS(=O)(=O)Nc1ccc2c(c1)cc(C)c(=O)n2C
inhibition at 100 µM [%]: 0
--
structure-notation: COc1ccc(C(=O)NOCc2ccccc2)cc1S(=O)(=O)Nc1ccc2c(c1)cc(C)c(=O)n2C
inhibition at 100 µM [%]: 13
--
structure-notation: COC(=O)c1ccc(OC)c(S(=O)(=O)Nc2ccc3c(c2)cc(C)c(=O)n3C)c1
inhibition at 100 µM [%]: 66
--
structure-notation: COc1cc(C(=O)NO)ccc1CS(=O)(=O)Nc1ccc2c(c1)cc(C)c(=O)n2C
inhibition at 100 µM [%]: 0
--
structure-notation: Cc1cc2cc(NS(=O)(=O)Cc3ccc(C(=O)NO)cc3)ccc2n(C)c1=O
inhibition at 100 µM [%]: 27

Please give the documented inhibition at 100 µM of COC(=O)c1ccc(S(=O)(=O)Nc2ccc3c(c2)cc(C)c(=O)n3C)cc1 68

----------
tgt: Peregrin (Homo sapiens)
Sequence (P55201 whole entry): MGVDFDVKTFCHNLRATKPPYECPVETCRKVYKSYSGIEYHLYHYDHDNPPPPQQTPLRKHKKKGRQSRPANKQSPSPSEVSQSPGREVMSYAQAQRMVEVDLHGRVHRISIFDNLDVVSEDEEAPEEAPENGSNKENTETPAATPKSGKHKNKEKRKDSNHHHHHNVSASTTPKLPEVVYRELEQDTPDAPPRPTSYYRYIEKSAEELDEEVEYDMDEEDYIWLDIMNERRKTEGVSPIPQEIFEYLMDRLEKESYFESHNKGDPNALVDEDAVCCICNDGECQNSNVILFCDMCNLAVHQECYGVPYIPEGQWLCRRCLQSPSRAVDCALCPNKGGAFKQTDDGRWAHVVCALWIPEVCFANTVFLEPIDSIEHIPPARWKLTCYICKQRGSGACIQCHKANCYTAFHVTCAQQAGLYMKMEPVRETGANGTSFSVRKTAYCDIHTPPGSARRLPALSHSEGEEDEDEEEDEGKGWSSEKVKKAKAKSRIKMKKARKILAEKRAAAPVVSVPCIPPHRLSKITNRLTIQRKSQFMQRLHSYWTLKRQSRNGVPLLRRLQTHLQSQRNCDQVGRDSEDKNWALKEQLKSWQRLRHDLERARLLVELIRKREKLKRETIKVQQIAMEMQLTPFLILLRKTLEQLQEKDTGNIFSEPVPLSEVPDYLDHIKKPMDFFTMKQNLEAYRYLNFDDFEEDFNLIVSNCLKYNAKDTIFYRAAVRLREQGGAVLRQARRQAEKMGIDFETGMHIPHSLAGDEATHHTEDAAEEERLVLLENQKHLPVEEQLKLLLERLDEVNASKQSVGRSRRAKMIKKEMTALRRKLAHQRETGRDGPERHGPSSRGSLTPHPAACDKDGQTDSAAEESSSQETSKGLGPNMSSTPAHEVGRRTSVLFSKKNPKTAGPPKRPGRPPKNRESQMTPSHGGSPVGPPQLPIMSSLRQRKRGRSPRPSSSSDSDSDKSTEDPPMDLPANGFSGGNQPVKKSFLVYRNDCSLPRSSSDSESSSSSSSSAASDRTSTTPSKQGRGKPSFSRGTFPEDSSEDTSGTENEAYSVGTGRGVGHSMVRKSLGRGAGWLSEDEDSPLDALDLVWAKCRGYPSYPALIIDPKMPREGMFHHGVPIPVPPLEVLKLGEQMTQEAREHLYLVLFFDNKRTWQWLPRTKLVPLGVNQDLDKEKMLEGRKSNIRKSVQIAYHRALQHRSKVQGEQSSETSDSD
assay-info: Binding affinity to BRPF1 (unknown origin) by Isothermal titration calorimetry
metric-name: Kd (nM)
All answers are understood in nM, so give the number only.

Could you please provide reported Kd for O=C(CCCCCCOc1ccccc1C(=O)Nc1ncnc2[nH]cnc12)NO ? Thanks! 2700
